- System: Ly3 DLBCL cells
- assay.notes: Growth inhibition of DLBCL cells, Ly3
- Assay type: cell-based
- run.conditions: Table 2; BCL-6 dependent; 48 hours
Entries annotated with measured GI50

(Q) Please report the recorded GI50 for CCOC(=O)CCN1C(=O)/C(=C2/C(=O)Nc3ccc(Cl)cc32)SC1=S .
(A) > 6 µM

(Q) Please report the recorded GI50 for O=C(O)CCN1C(=O)/C(=C2/C(=O)Nc3ccccc32)SC1=S .
(A) > 40 µM

Let us examine a further case.
(Q) Please report the recorded GI50 for O=C(O)CCN1C(=O)/C(=C2/C(=O)Nc3ccc(Cl)cc32)SC1=S .
(A) > 40 µM
